Assay: Hepatotoxicity against human HepG2 cells assessed as ATP level at 100 uM after 3 hrs by CellTiter-Glo luminescent cell viability assay relative to control
Type: toxicity, cell-based
Details: read-out: Activity
Observed Property: viability at 3 h, 100 µM (%)
Entry rule: numbers only, all in %.

For the compound CCn1cncc1-c1c[nH]c2ccc(C(N)=O)cc12 , what viability at 3 h, 100 µM is on record?
102

====

Biological target: 5-hydroxytryptamine receptor 1A (Homo sapiens, UniProt P08908)
Sequence (P08908 whole entry): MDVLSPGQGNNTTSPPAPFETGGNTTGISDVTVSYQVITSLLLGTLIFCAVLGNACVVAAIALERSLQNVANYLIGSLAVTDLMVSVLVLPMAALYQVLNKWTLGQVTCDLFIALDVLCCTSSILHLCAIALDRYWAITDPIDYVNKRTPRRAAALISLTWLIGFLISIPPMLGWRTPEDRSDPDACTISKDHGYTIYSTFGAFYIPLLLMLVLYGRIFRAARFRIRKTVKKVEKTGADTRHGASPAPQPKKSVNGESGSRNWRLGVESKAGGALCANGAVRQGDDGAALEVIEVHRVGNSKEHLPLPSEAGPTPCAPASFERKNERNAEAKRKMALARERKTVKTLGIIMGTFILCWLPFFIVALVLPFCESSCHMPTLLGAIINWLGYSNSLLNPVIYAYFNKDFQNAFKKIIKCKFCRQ
Assay: Displacement of [3H]8-OH-DPAT from recombinant human 5-HT1A receptor after 60 mins by scintillation counting analysis
Observed Property: pKi
Conceptually, pKi converts a concentration in mol/L into minus its log10.

For the compound Cc1nn(C)c(C)c1-c1cccc(CCN(C)C)c1 , what pKi is on record?
6.15
